target: T1, human PD-1 (recombinant, titrated in BIAcore) (human, UniProt Q15116 25-170); assay: SPR BIAcore 3000; antibody captured by anti-human Fc, human PD-1 titrated;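 also: CM5 chip with amine-coupled goat anti-human Fc F(ab′)₂, HBS-EP running buffer at 10 µL/min, blank-surface-subtracted sensorgrams fitted in BIAevaluation 3.2 for kinetic constants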
T1 construct: extracellular domain; also called recombinant human PD-1 extracellular domain
T1 sequence (Q15116 25-170): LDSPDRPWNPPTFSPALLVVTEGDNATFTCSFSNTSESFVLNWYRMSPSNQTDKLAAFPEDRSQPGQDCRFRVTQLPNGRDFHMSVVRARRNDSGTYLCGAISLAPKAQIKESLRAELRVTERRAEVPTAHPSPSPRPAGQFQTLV
Each entry below carries its recorded pKd.
pKd is defined as minus the log10 of a concentration measured in mol/L.

These solved cases illustrate the format of a correct answer.
- binder: "949 VK1 gL12 gH8b (antibody, V domains shown, Humanised; human kappa constant (Km3)) VH: EVQLVQSGAEVKKPGSSVKVSCKAFGYTFTTYPIEWMRQAHGQGLEWIGNFHPYNDDTKYNEKFKGRVTITADKSTSTAYMELSSLRSEDTAVYYCARENYGSHGGFVYWGQGTLVTVS VL: ENVMTQSPFSLSASVGDRVTITCRASSSVISSYLHWYQQKPAKAPKLFIYSTSNLASGVPSRFSGSGSGTDYTLTISSLQPEDFATYYCQQYNGYPLTFGGGTKVEIK"
  pKd: 8.56
- binder: "949 VK1 gL9 gH8a (antibody, V domains shown, Humanised; human kappa constant (Km3)) VH: EVQLVQSGAEVKKPGASVKVSCKAFGYTFTTYPIEWMRQAHGQGLEWIGNFHPYNDDTKYNEKFKGRVTMTRDTSTSTVYMELSSLRSEDTAVYYCARENYGSHGGFVYWGQGTLVTVS VL: ENVLTQSPFSLSASVGDRVTITCRASSSVISSYLHWYQQKPAKAPKLFIYSTSNLASGVPSRFSGSGSGTDYTLTISSLQPEDFATYYCQQYNGYPLTFGGGTKVEIK"
  pKd: 8.63
- binder: "949 VK1 gL9 gH20b (antibody, V domains shown, Humanised; human kappa constant (Km3); also called Transient #1) VH: EVQLVQSGAEVKKPGSSVKVSCKASGYTFTTYPIEWVRQAPGQGLEWMGNFHPYNDDTKYNEKFKGRVTITADKSTSTAYMELSSLRSEDTAVYYCARENYGSHGGFVYWGQGTLVTVS VL: ENVLTQSPFSLSASVGDRVTITCRASSSVISSYLHWYQQKPAKAPKLFIYSTSNLASGVPSRFSGSGSGTDYTLTISSLQPEDFATYYCQQYNGYPLTFGGGTKVEIK"
  pKd: 8.58
- binder: "949 VK1 gL9 gH20a (antibody, V domains shown, Humanised; human kappa constant (Km3)) VH: EVQLVQSGAEVKKPGASVKVSCKAFGYTFTTYPIEWVRQAPGQGLEWMGNFHPYNDDTKYNEKFKGRVTMTRDTSTSTVYMELSSLRSEDTAVYYCARENYGSHGGFVYWGQGTLVTVS VL: ENVLTQSPFSLSASVGDRVTITCRASSSVISSYLHWYQQKPAKAPKLFIYSTSNLASGVPSRFSGSGSGTDYTLTISSLQPEDFATYYCQQYNGYPLTFGGGTKVEIK"
  pKd: 8.50
- binder: "949 VK1 gL12 gH8a (antibody, V domains shown, Humanised; human kappa constant (Km3)) VH: EVQLVQSGAEVKKPGASVKVSCKAFGYTFTTYPIEWMRQAHGQGLEWIGNFHPYNDDTKYNEKFKGRVTMTRDTSTSTVYMELSSLRSEDTAVYYCARENYGSHGGFVYWGQGTLVTVS VL: ENVMTQSPFSLSASVGDRVTITCRASSSVISSYLHWYQQKPAKAPKLFIYSTSNLASGVPSRFSGSGSGTDYTLTISSLQPEDFATYYCQQYNGYPLTFGGGTKVEIK"
  pKd: 8.61

Q: Specify reported pKd for the binder shown: 949 VK1 gL9 gH8b (antibody, V domains shown, Humanised; human kappa constant (Km3)) VH: EVQLVQSGAEVKKPGSSVKVSCKAFGYTFTTYPIEWMRQAHGQGLEWIGNFHPYNDDTKYNEKFKGRVTITADKSTSTAYMELSSLRSEDTAVYYCARENYGSHGGFVYWGQGTLVTVS VL: ENVLTQSPFSLSASVGDRVTITCRASSSVISSYLHWYQQKPAKAPKLFIYSTSNLASGVPSRFSGSGSGTDYTLTISSLQPEDFATYYCQQYNGYPLTFGGGTKVEIK
Result: 8.63
